These measurements were taken from PubChem BioAssay (Tox21).

# subject of test: Estrogen receptor (Homo sapiens)
# test summary: qHTS assay to identify small molecule antagonists of the estrogen receptor alpha (ER-alpha) signaling pathway using the BG1 cell line in the presence of 0.1 nM 17-beta-estradiol (AID 1259244); also: nearly all actives have a fitted effect of over 50% in size
# particulars: VM7Luc4E2 (BG1) ERE-luciferase, antagonist mode, 0.1 nM E2, 22 h; series mostly up to 92.4 µM
Results filed as inconclusive are left out. Active and inactive are the calls of the source. Calls follow the shape of the dose curve; as a rule, active = well fitted inhibition curve with a large enough effect in the repeat runs; inconclusive = weak or mixed curves; inactive = no such curve, though single readings can be large or run the other way.
Labels: active, inactive

1. CC(C)(C)NCC(O)c1ccc(O)c(CO)c1 (stereo not given)    inactive
2. COc1cc2c(c(OC)c1OC)-c1ccc(OC)c(=O)cc1[C@@H](NC(C)=O)CC2    active
3. Cc1cnc(NC(=O)C2=C(O)c3ccccc3S(=O)(=O)N2C)s1    inactive
4. Cc1c(N(C)C)c(=O)n(-c2ccccc2)n1C    inactive
5. Nc1ccc(N=Nc2ccccc2)c(N)n1    inactive
6. Oc1cccc(O)c1    inactive
7. CN/C(=C\[N+](=O)[O-])NCCSCc1ccc(CN(C)C)o1    inactive
8. CC(=O)Oc1ccccc1C(=O)O    inactive
9. OCCCc1ccccc1    inactive
10. CCCCOC(=O)CCCCCCCCC(=O)OCCCC    inactive
11. CC(=O)/C=C/C1=C(C)CCCC1(C)C    inactive
12. CC(=O)c1ccc(S(=O)(=O)NC(=O)NC2CCCCC2)cc1    inactive
13. COCC(C)N (stereo not given)    inactive
14. CC(C)(C)CC(C)(C)c1ccc(O)c(-n2nc3ccccc3n2)c1    inactive
15. C=C(C)C(N)=O    inactive
